Molecular target: human P2X7 receptor (Homo sapiens, UniProt Q99572, R270H/Y155H)
Experiment: Evaluation of human P2X7 receptor inhibitory activity (Yo-Pro uptake, BzATP stimulation, FLIPR TETRA)
Format: cell-based
Conditions: 1321N1 cells stably expressing human P2X7 receptor; BzATP stimulation, Yo-Pro uptake; read-out: IC50 (antagonistic activity for the human P2X7 receptor), class symbol
pIC50: −log10 of the molar value.
assay-endpoint: pIC50

# annotated cases, reported pIC50 shown
Here COc1cc(C)c(Nc2nc(=O)c(OC)cn2Cc2cccc(Cl)c2)cc1C [Compound I-0250] was tested on human P2X7 receptor (Homo sapiens, UniProt Q99572, R270H/Y155H), and its pIC50 came to > 8.00

Here Cc1c(Cl)cccc1Nc1nc(=O)c(Cl)cn1Cc1ccc(F)c(F)c1 [Compound I-0472] was tested on human P2X7 receptor (Homo sapiens, UniProt Q99572, R270H/Y155H), and its pIC50 came to > 8.00

Here CCc1ccc(OC)cc1Nc1nc(=O)c(OC)cn1Cc1ccc(F)c(Cl)c1 [Compound I-0246] was tested on human P2X7 receptor (Homo sapiens, UniProt Q99572, R270H/Y155H), and its pIC50 came to > 8.00

Here COc1cn(Cc2ccccc2)c(N[C@@H]2CCc3ccccc32)nc1=O [Compound I-0201] was tested on human P2X7 receptor (Homo sapiens, UniProt Q99572, R270H/Y155H), and its pIC50 came to 6.00 to 6.30

Here COc1cc(C)c(Nc2nc(=O)c(Cl)cn2Cc2cccc(Cl)c2)cc1OC [Compound I-0346] was tested on human P2X7 receptor (Homo sapiens, UniProt Q99572, R270H/Y155H), and its pIC50 came to > 8.00

Next:
Here CCc1cc(OC)c(OC)cc1Nc1nc(=O)c(OC)cn1Cc1cccc(F)c1 [Compound I-0269] was tested on human P2X7 receptor (Homo sapiens, UniProt Q99572, R270H/Y155H), and its pIC50 came to > 8.00

Here COc1cc(C)cc(Nc2nc(=O)c(OC)cn2Cc2cccc(Cl)c2)c1C [Compound I-0428] was tested on human P2X7 receptor (Homo sapiens, UniProt Q99572, R270H/Y155H), and its pIC50 came to > 8.00

Here CCc1ccccc1Nc1nc(=O)c(OC)cn1Cc1cc(F)c(F)c(F)c1 [Compound I-0568] was tested on human P2X7 receptor (Homo sapiens, UniProt Q99572, R270H/Y155H), and its pIC50 came to 7.00 to 8.00

###

Target: human P2X7 receptor (Homo sapiens, UniProt Q99572, R270H/Y155H)
Experiment: Evaluation of human P2X7 receptor inhibitory activity (Yo-Pro uptake, BzATP stimulation, FLIPR TETRA)
Format: cell-based
Settings: 1321N1 cells stably expressing human P2X7 receptor; BzATP stimulation, Yo-Pro uptake; read-out: IC50 (antagonistic activity for the human P2X7 receptor)
Procedure: Stably expressing cell line (1321N1 cell transfected with the human P2X7 receptor gene (GenBank accession number NM_002562.5 including T606C and G952A SNP)) was used. […] Measurement of fluorescence intensity by FLIPR TETRA was started. […] Changing values of fluorescence intensity by the compound of the present invention were calculated by difference between maximum and minimum fluorescence intensity for 20 minutes. Inhibition ratios (%) were calculated from the following equation: […]
Property: pIC50; scope: individual compounds
Bear in mind: pIC50 is minus log10 of a mol/L concentration; give just that figure.

# annotated cases, reported pIC50 shown
Reported pIC50 for COc1cnc(Nc2cc(C)cc3[nH]ccc23)n(Cc2ccc(F)c(Cl)c2)c1=O was 6.52

Reported pIC50 for COc1ccc(C)c(Nc2nc(=O)c(OC)cn2Cc2ccc(F)c(Cl)c2)c1 was 8.52

Reported pIC50 for COc1cn(Cc2cc(F)cc(Cl)c2)c(Nc2cccc3sccc23)nc1=O was 7.70

Next:
Reported pIC50 for COc1cc(C)c(Nc2nc(=O)c(F)cn2Cc2cc(F)cc(F)c2)cc1C(C)C was 7.82

Reported pIC50 for COc1cn(Cc2ccc(F)c(Cl)c2)c(Nc2cc(S(C)(=O)=O)cc(C)c2C)nc1=O was 7.92

Reported pIC50 for COc1cnc(Nc2cccc(Cl)c2C)n(Cc2ccccc2)c1=O was 6.35

Reported pIC50 for Cc1cc(OC(F)F)c(C)cc1Nc1nc(=O)c(F)cn1Cc1cc(F)cc(F)c1 was 8.70

Reported pIC50 for Cc1c(Cl)cccc1Nc1nc(=O)ccn1CCc1ccccc1 was 7.59

Reported pIC50 for COc1cn(CCc2ccccc2)c(Nc2cccc(Cl)c2C)nc1=O was 7.43

Reported pIC50 for COc1cn(Cc2ccc(F)c(Cl)c2)c(Nc2ccc(OC(F)F)cc2C)nc1=O was 7.74

Reported pIC50 for CCc1cc(F)c(OC)cc1Nc1nc(=O)c(OC)cn1Cc1cc(F)cc(F)c1 was 8.40

Reported pIC50 for COc1cn(Cc2ccccc2)c(Nc2cccc3c2CCC3)nc1=O was 6.23

Reported pIC50 for COc1cn(Cc2ccc(F)c(Cl)c2)c(Nc2cc(-c3ncco3)ccc2C)cc1=O was 7.60

Reported pIC50 for Cc1cc(Nc2nc(=O)c(Cl)cn2Cc2cc(F)cc(F)c2)c2cc[nH]c2c1 was 7.82

Values were extracted from patent US10774051B2.
